Listing of recorded koff by entry.
# Measurement target: T1, human IL-17 (human, UniProt Q16552 20-155, limits assumed)
# T1 construct: Recombinant human IL-17 from R&D Systems (#317-IL/CF, #317-IL-050); also called IL-17A; hIL-17
# T1 sequence: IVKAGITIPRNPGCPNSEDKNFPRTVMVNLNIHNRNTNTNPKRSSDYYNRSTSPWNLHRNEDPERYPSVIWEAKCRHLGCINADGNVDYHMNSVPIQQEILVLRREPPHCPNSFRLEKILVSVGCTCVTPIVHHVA
# Assay info: SPR (BIACORE 2000), mAb captured on Protein A, IL-17 injected, 25 C, 1:1 with mass transfer model;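 also: CM4 chip with immobilized Protein A, HBS-EP running buffer pH 7.4, IL-17 titrated downward from 10 nM in twofold steps, 20 min dissociation phase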
// units = s⁻¹; emit number, no label

binder="mAb 118 (full-length, IgG4 Fc region) (antibody, V domains shown) VH: QVQLVQSGAEVKKPGSSVKVSCKASGYSFTDYHISWVRQAPGQGLEWMGVINPMYGTTDYNQRFKGRVTITADESTSTAYMELSSLRSEDTAVYYCARYDYYTGTGVYWGQGTLVTVSS VL: DIVMTQTPLSLSVTPGQPASISCRSSQSLVHSRGNTFLHWYLQKPGQSPQLLIYKVSNRFIGVPDRFSGSGSGTDFTLKISRVEAEDVGVYYCSQSTHYPFTFGQGTKLEIK" reported_value=2e-05
binder="mAb 131 (full-length, IgG4 Fc region) (antibody, V domains shown) VH: QVQLVQSGAEVKKPGSSVKVSCKASGYSFTDYHIHWVRQAPGQGLEWMGVINPEYGTTDYNQRFKGRVTITADESTSTAYMELSSLRSEDTAVYYCARYDYFTGTGVYWGQGTLVTVSS VL: DIVMTQTPLSLSVTPGQPASISCRSSKSLVHSRGNTYLHWYLQKPGQSPQLLIYKVSNRFIGVPDRFSGSGSGTDFTLKISRVEAEDVGVYYCSQSTHYPFTFGQGTKLEIK" reported_value=1.6e-05
binder="mAb 104 (full-length, IgG4 Fc region) (antibody, V domains shown, also called full-length mAb 104) VH: QVQLVQSGAEVKKPGSSVKVSCKASGYSFTDYHIHWVRQAPGQGLEWMGVINPEYGTTDYNQRFKGRVTITADESTSTAYMELSSLRSEDTAVYYCARYDYFTGTGAYWGQGTLVTVSS VL: DIVMTQTPLSLSVTPGQPASISCRSSKSLVHSRGNTFLHWYLQKPGQSPQLLIYKVSTRFSGVPDRFSGSGSGTDFTLKISRVEAEDVGVYYCSQSTHYPFTFGQGTKLEIK" reported_value=1.1e-05
binder="mAb 103 (full-length, IgG4 Fc region) (antibody, V domains shown, also called full-length mAb 103) VH: QVQLVQSGAEVKKPGSSVKVSCKASGYSFTDYHIHWVRQAPGQGLEWMGVINPEYGTTDYNQRFKGRVTITADESTSTAYMELSSLRSEDTAVYYCARYDYFTGTGAYWGQGTLVTVSS VL: DIVMTQTPLSLSVTPGQPASISCRSSQSLRHSRGNTYLHWYLQKPGQSPQLLIYKVSNIFSGVPDRFSGSGSGTDFTLKISRVEAEDVGVYYCSQSTHYPFTFGQGTKLEIK" reported_value=1.5e-05

Value of measured koff for the entry mAb 121 (full-length, IgG4 Fc region) (antibody, V domains shown, Full-length mAb with an IgG4 Fc region) VH: QVQLVQSGAEVKKPGSSVKVSCKASGYSFTDYHISWVRQAPGQGLEWMGVINPEYGTTDYNQRFKGRVTITADESTSTAYMELSSLRSEDTAVYYCARYDYFTGTGAYWGQGTLVTVSS VL: DIVMTQTPLSLSVTPGQPASISCRSSQSLKHSRGNTFLHWYLQKPGQSPQLLIYKVSNRFIGVPDRFSGSGSGTDFTLKISRVEAEDVGVYYCSQSTHYPFTFGQGTKLEIK : 1.5e-05
